Cited source: patent US8993606B2

EXPERIMENT DESCRIPTION: Example 5: single-dose study in iron-overloaded human subjects (PK)
Type: in vivo
CONDITION DESCRIPTION: human, plasma; single oral dose 10 mg/kg, subject 2
VALUE TYPE: AUC(0-t) (ng·h/mL)
A number alone suffices; assume ng·h/mL.

Which AUC(0-t) value is on record for "COCCOCCOCCOc1cccc(C2=N[C@@](C)(C(=O)O)CS2)c1O" ? 69200

---

EXPERIMENT DESCRIPTION: Aqueous solubility of salts
Format: physicochemical
CONDITION DESCRIPTION: water; read-out: solubility in water
Excerpt: Typically, oral formulations described herein facilitate solubilizing an active ingredient (e.g., a desazadesferrithiocin analog, salt or polymorph) at a desired amount or rate suitable for the treatment of metal overload. […] Aqueous solubility is, in and of itself, a useful quantitative measure, but it has additional utility as a correlate and predictor, with some limitations which will be clear to those of skill in the art, of oral bioavailability. […]
VALUE TYPE: solubility

Which solubility value is on record for "COCCOCCOCCOc1cccc(C2=N[C@@](C)(C(=O)O)CS2)c1O" ? ≥ 48 mg/mL

---

EXPERIMENT DESCRIPTION: Example 5: single-dose study in iron-overloaded human subjects (PK)
Type: in vivo
CONDITION DESCRIPTION: human, plasma; single oral dose 32 mg/kg, subject 4
VALUE TYPE: Cmax
Respond with the figure and its unit, in that order.

Which Cmax value is on record for "COCCOCCOCCOc1cccc(C2=N[C@@](C)(C(=O)O)CS2)c1O" ? 47600 ng/mL

---

EXPERIMENT DESCRIPTION: Example 9: single-dose study in healthy human subjects 30-75 mg/kg and 20 mg/kg x 2 (PK)
Type: in vivo
CONDITION DESCRIPTION: human, plasma; single oral dose 50 mg/kg; read-out: t1/2 (converted)
VALUE TYPE: half-life (h)
A number alone suffices; assume h.

Which half-life value is on record for "COCCOCCOCCOc1cccc(C2=N[C@@](C)(C(=O)O)CS2)c1O" ? 12.8

---

EXPERIMENT DESCRIPTION: Example 9: single-dose study in healthy human subjects 30-75 mg/kg and 20 mg/kg x 2 (PK)
Type: in vivo
CONDITION DESCRIPTION: human, plasma; single oral dose 60 mg/kg; median; read-out: tmax
VALUE TYPE: Tmax
Respond with the figure and its unit, in that order.

Which Tmax value is on record for "COCCOCCOCCOc1cccc(C2=N[C@@](C)(C(=O)O)CS2)c1O" ? 1.38 h

---

EXPERIMENT DESCRIPTION: Example 6: multiple-dose study in iron-overloaded human subjects (PK)
Format: in vivo
CONDITION DESCRIPTION: both sexes, human, plasma; 16 mg/kg/day, 7 days oral; median; read-out: tmax
VALUE TYPE: Tmax (h)
A number alone suffices; assume h.

Which Tmax value is on record for "COCCOCCOCCOc1cccc(C2=N[C@@](C)(C(=O)O)CS2)c1O" ? 1

---

EXPERIMENT DESCRIPTION: Example 8: single-dose study in healthy human subjects 3-16 mg/kg (PK)
Type: in vivo
CONDITION DESCRIPTION: male, human, plasma; single oral dose 3 mg/kg; mean of 3 subjects
VALUE TYPE: Tmax

Which Tmax value is on record for "COCCOCCOCCOc1cccc(C2=N[C@@](C)(C(=O)O)CS2)c1O" ? 1.33 h
